Experiment: in vitro
Assay type: in vitro ADME
Settings: human, cells or culture medium, bradykinin remaining in media
No end group written: not given here.
measured_metric: remaining at 1.5 h, 500 pg/ml
Write down the value, and be sure its unit follows.

Form field remaining at 1.5 h, 500 pg/ml, entry RPPGFSPFR [bradykinin] : 9%

====

Experiment: in vitro
Format: in vitro ADME
Details: human, cells or culture medium, bradykinin present in media
No end group written: not given here.
measured_metric: remaining at 0.5 h, 500 pg/ml (%)
State just the number; it will be interpreted in %.

Form field remaining at 0.5 h, 500 pg/ml, entry RPPGFSPFR [bradykinin] : 73

====

Test: in vitro
Type: in vitro ADME
Conditions: human, cells or culture medium, bradykinin remaining in media
No end group written: not given here.
measured_metric: remaining at 0.5 h, 500 pg/ml (%)
State just the number; it will be interpreted in %.

Form field remaining at 0.5 h, 500 pg/ml, entry RPPGFSPFR [bradykinin] : 51

====

Assay: in vitro
Format: in vitro ADME
Conditions: human, cells or culture medium, bradykinin present in media
No end group written: not given here.
measured_metric: remaining at 1 h, 500 pg/ml
Write down the value, and be sure its unit follows.

Form field remaining at 1 h, 500 pg/ml, entry RPPGFSPFR [bradykinin] : 52%

====

Assay: in vitro
Format: in vitro ADME
Details: human, cells or culture medium, bradykinin remaining in media
No end group written: not given here.
measured_metric: remaining at 1 h, 500 pg/ml (%)
State just the number; it will be interpreted in %.

Form field remaining at 1 h, 500 pg/ml, entry RPPGFSPFR [bradykinin] : 15
